Where do these numbers come from? They come from patent US20110245242A1.

Measured log p accompanies every entry in the list below.
method summary: physchem
Type: physicochemical
test conditions: pH 7.8

compound | result
O=C1CCC(C(F)(F)F)N1c1cccc(Nc2ncc(Br)c(NC3CCC3)n2)c1 (centres unmarked) [Example 258] | 3.24[c];
CNc1nc(Nc2ccc(F)c(N3CCCC3=O)c2)ncc1Cl [Example 199] | 1.91[c];
O=C1CCCN1c1cccc(Nc2ncc(C(F)(F)F)c(N3CCCC3)n2)c1 [Example 301] | 3.24[c];
CC1CN(c2cccc(Nc3ncc(Cl)c(NC4CC4)n3)c2)C(=O)O1 (centres unmarked) [Example 264] | 2.56[c];

# query: log p of entry CC1CC1Nc1nc(Nc2cccc(N3CCCC3=O)c2)ncc1Br (centres unmarked) [Example 229]
2.82[c];

====

method summary: log P by HPLC on reversed-phase columns (C 18), method [a], acidic range pH 2.3
Type: physicochemical
test conditions: pH 2.3, log P (pH 2.3)
chromatographic logP less than 2 is label 1; chromatographic logP greater than or equal to 2 is label 0.

Example cases with answers are listed next.
molecule | assigned category
Nc1cc(N2C(=O)CCC2=O)ccc1Cl | label 1
Clc1ccc(Nc2ncc(Cl)c(NC3CC3)n2)cc1Br [VII-6] | label 0
C[C@@H]1COC(=O)N1c1cccc(N)c1 | label 1
Nc1cccc(N2C(=O)CCC2C(F)(F)F)c1 (centres unmarked) | label 1
Clc1cnc(Nc2cccc(Br)c2)nc1NC1CC1 [VII-5] | label 0

Does this molecule meet the criterion chromatographic logP < 2? CCC1CC(C)C(=O)N1c1cccc(Nc2ncc(Cl)c(NC3CC3)n2)c1 (centres unmarked) [Example 206]
label 0

Does this molecule meet the criterion chromatographic logP < 2? FC(F)(F)Oc1ccc(Nc2ncc(Cl)c(NC3CC3)n2)cc1Br [VII-3]
label 0

Does this molecule meet the criterion chromatographic logP < 2? O=C1CCCN1c1cc([N+](=O)[O-])ccc1F
label 1

Does this molecule meet the criterion chromatographic logP < 2? CC1CCN(Cc2cccc([N+](=O)[O-])c2)C1=O (centres unmarked)
label 1

Does this molecule meet the criterion chromatographic logP < 2? CCOC(=O)[C@@H]1CCC(=O)N1c1cccc(Nc2ncc(Cl)c(NC3CC3)n2)c1 [Example 190]
label 1

====

method summary: log P by HPLC on reversed-phase columns (C 18), method [a], acidic range pH 2.3
Assay type: physicochemical
test conditions: pH 2.3, log P (pH 2.3)
Quick rule: chromatographic logP of at least 3 means criterion met, below that means criterion not met.

Example cases with answers are listed next.
compound | assigned category
CCOC(=O)[C@@H]1CCC(=O)N1c1cccc(N)c1 | criterion not met
CC1CC(Nc2nc(Cl)ncc2Cl)C1 (centres unmarked) [Example V-39] | criterion met
CC1CC1Nc1nc(Cl)ncc1Br (centres unmarked) [Example V-41] | criterion not met

Continue with the next compound.
Exam item: decide whether the reported chromatographic logP for Clc1ncc(Cl)c(NC2COC2)n1 [Example V-29] is at least 3.
criterion not met

====

Measured log p accompanies every entry in the list below.
method summary: log P by LC-MS, method [b], acid range pH 2.7
Assay type: physicochemical
test conditions: pH 2.7

Use these answered entries as a reference point.
compound | log p
CNc1nc(Nc2ccc(F)c(N3CCCC3=O)c2)ncc1Cl [Example 199] | 1.28[b]
CC1CC(=O)N(c2cccc(Nc3ncc(Br)c(NC4CC4)n3)c2)C1 (stereo not drawn) [Example 99] | 1.85[b]
O=C1OCCN1c1cccc(Nc2ncc(Cl)c(NCC(F)F)n2)c1 [Example 154] | 1.63[b]

# query: log p of entry CC1CC1Nc1nc(Nc2cccc(N3C(=O)OC[C@H]3C(C)C)c2)ncc1Cl (stereo partly drawn) [Example 216]
2.43[b]

# query: log p of entry CC1CC1Nc1nc(Nc2cccc(N3CCCC3=O)c2)ncc1Br (stereo not drawn) [Example 229]
1.84[b]

# query: log p of entry CC1CC(=O)N(c2cccc(Nc3ncc(Br)c(NC4CCC4)n3)c2)C1 (stereo not drawn) [Example 98]
2.16[b]

# query: log p of entry CC1CC(Nc2nc(Nc3cccc(N4C(=O)CC(C)C4=O)c3)ncc2Cl)C1 (stereo not drawn) [Example 333]
2.09[b]

# query: log p of entry CC1CCN(c2cccc(Nc3ncc(C(F)(F)F)c(NC4CC4)n3)c2)C1=O (stereo not drawn) [Example 292]
2.65[b]

# query: log p of entry CCC1CCC(=O)N1c1cccc(Nc2ncc(C(F)(F)F)c(NC3CC3)n2)c1 (stereo not drawn) [Example 255]
2.75[b]

====

Measured log p accompanies every entry in the list below.
method summary: log P by LC-MS, method [b], acid range pH 2.7
Assay type: physicochemical
test conditions: pH 2.7

Use these answered entries as a reference point.
compound | log p
CCC1CC(C)C(=O)N1c1cccc(Nc2ncc(Br)c(NC(C)C)n2)c1 (stereo not drawn) | 2.36[b]
CC(C)Nc1nc(Nc2ccc(N3CCOC3=O)cc2)ncc1Cl | 1.49[b]
CC1CCC(=O)N1c1cccc(Nc2ncc(C(F)(F)F)c(NC3CC3)n2)c1 (stereo not drawn) | 2.41[b]
CC1(C)CN(c2cccc(Nc3ncc(Br)c(NC4CC4)n3)c2)C1=O | 2.18[b]
CC1CC(=O)N(c2cccc(Nc3ncc(Cl)c(NCC(F)F)n3)c2)C1=O (stereo not drawn) | 1.68[b]

Then there is this compound:
# query: log p of entry CC(C)Nc1nc(Nc2cccc(N3C(=O)CC(C)(C)C3=O)c2)ncc1Br
1.93[b]

====

method summary: log P by LC-MS, method [b], acid range pH 2.7
Type: physicochemical
test conditions: pH 2.7
measure: log p

Use these answered entries as a reference point.
compound | log p
CCCNc1nc(Nc2cccc(N3CCCC3=O)c2)ncc1Cl | 1.49[b]
COCC(C)Nc1nc(Nc2cccc(N3CCOC3=O)c2)ncc1Cl (stereo not drawn) | 1.54[b]
CC1(C)CN(c2cccc(Nc3ncc(Cl)c(NC4CC4)n3)c2)C1=O | 2.07[b]
Cc1ccc(Nc2ncc(C(F)(F)F)c(NC3CC3)n2)cc1N1CCCC1=O | 2.16[b]
CC(C)Nc1nc(Nc2cccc(N3C(=O)OCC3C)c2)ncc1Br (stereo not drawn) | 1.73[b]
CC1(C)CC(=O)N(c2cccc(Nc3ncc(Br)c(NCC4CC4)n3)c2)C1=O | 2.02[b]
CCOC(=O)[C@@H]1CCC(=O)N1c1cccc(Nc2ncc(C(F)(F)F)c(NC3CC3)n2)c1 | 2.56[b]
C[C@@H]1C[C@H](C)N(c2cccc(Nc3ncc(Br)c(NCC(F)F)n3)c2)C1=O | 3.24[b]

Then there is this compound:
# query: log p of entry CC(C)Nc1nc(Nc2ccc(F)c(N3CCCC3=O)c2)ncc1Cl
1.55[b]

====

Assay type: physicochemical
Marks after values point to notes of the source that are not given here.
measure: log p

Use these answered entries as a reference point.
compound | log p
CCC1CC(C)C(=O)N1c1cccc(Nc2ncc(Br)c(NC3CCC3)n2)c1 (stereo not shown) | 2.19[d]
O=C1CCC(=O)N1c1cccc(Nc2ncc(Cl)c(NC3CCC3)n2)c1 | 1.24[d]
O=C1CCC(=O)N1c1cccc(Nc2ncc(Cl)c(NC3CC3)n2)c1 | 0.99[d]

Then there is this compound:
# query: log p of entry COCC(C)Nc1nc(Nc2cccc(N3C(=O)CCC3=O)c2)ncc1Cl (stereo not shown)
1.02[d]

====

method summary: physchem
Type: physicochemical
test conditions: pH 7.8
measure: log p

Use these answered entries as a reference point.
compound | log p
CC1CC1Nc1nc(Nc2cccc(N3CCCCC3=O)c2)ncc1Cl (stereo not drawn) | 2.48[c];
CC1CC1N(C)c1nc(Nc2cccc(N3CCCC3=O)c2)ncc1Cl (stereo not drawn) | 3.53[c];
CC1CC(=O)N(c2cccc(Nc3ncc(C(F)(F)F)c(NC4CCC4)n3)c2)C1=O (stereo not drawn) | 3.04[c];
CC1CCN(c2cccc(Nc3ncc(Cl)c(N(C)C4CC4)n3)c2)C1=O (stereo not drawn) | 3.48[c];

# query: log p of entry COCC(C)Nc1nc(Nc2cccc(N3CCCC3=O)c2)ncc1C(F)(F)F (stereo not drawn)
2.79[c]

# query: log p of entry CC1CC1Nc1nc(Nc2ccc(N3CCOC3=O)cc2)ncc1Br (stereo not drawn)
2.91[c];

# query: log p of entry O=C1CCCN1c1cc(Nc2ncc(Cl)c(NCC(F)F)n2)ccc1F
2.15[c]

# query: log p of entry O=C1CCCN1c1ccc(Nc2ncc(Cl)c(NC3COC3)n2)cc1
0.9[c]

# query: log p of entry O=C1CCCN1c1cccc(Nc2ncc(Cl)c(N3CCCCC3)n2)c1
3.53[c];

====

method summary: log P by HPLC on reversed-phase columns (C 18), method [a], acidic range pH 2.3
Assay type: physicochemical
test conditions: pH 2.3
measure: log p

Use these answered entries as a reference point.
molecule | measure | result
O=C1CCCN1c1cc(Nc2ncc(Cl)c(NC3CC3)n2)ccc1OC(F)(F)F | log p | 2.34[a];
CC1COC(=O)N1c1cccc(Nc2ncc(Br)c(NC3CCC3)n2)c1 (stereo not drawn) | log p | 1.97[a]

# query: log p of entry C=CCNc1nc(Nc2cccc(N3CCCC3=O)c2)ncc1Cl
1.45[a];

# query: log p of entry CC(C)CC1COC(=O)N1c1cccc(Nc2ncc(Cl)c(NC3CCC3)n2)c1 (stereo not drawn)
2.83[a]
